GI50 listing for selected molecules.
# Tested on: RXF 393 renal
# Measurement Description: NCI tumour cell line growth inhibition, 48 h

// below: answered molecules
In [3]: df
Out[3]:
                  compound_structure_string  value_type   result
0  O=C1C(Cl)=C(Nc2cccc(O)c2)C(=O)N1Cc1ccc(Cl)cc1Cl        GI50  1.06 µM
1  N.N.O=P([O-])([O-])C1(P(=O)([O-])[O-])CCCCCN1.[Pt+2]        GI50  42.3 µM
2        Cc1cc(I)cc(CN(C)CCCN2CCN(C)CC2)c1O        GI50  21.7 µM

Kindly note the recorded GI50 for Cc1ccc(-c2cc(O)c(-c3ccc(C)cc3C)cc2O)c(C)c1 , which is 5.6 µM

Kindly note the recorded GI50 for O=Nc1c(-c2c(O)[nH]c3ccc(Br)cc23)[nH]c2ccccc12 , which is 3.62 µM

---

# Test system: SNB-19 CNS
# Measurement Description: NCI tumour cell line growth inhibition, 48 h
Value Type: TGI

>>> print(df.to_string())
                                   molecule     result
0  O=c1oc2c(C(F)(F)F)cccc2cc1-c1csc(Nc2ccc(OCCF)cc2)n1  > 56.4 µM
1  COc1cc(Br)c(CC2C3=C(CCN2C(=O)C2CCC2)CC(=O)CC3)cc1O (stereo not given)   > 100 µM
2  COC(=O)C(C)NC(=O)c1ccccc1I(OS(=O)(=O)C(F)(F)F)c1ccccc1 (stereo not given)  > 65.4 µM
3             Brc1cc2c(cc1Br)CN(c1ccccc1)C2   > 100 µM
4  O=S1Nc2c(Cl)cc(Cl)c(Cl)c2S1 (stereo not given)   > 100 µM

The record that follows has no TGI shown yet.
For CC(=O)[CH-]C(C)=O.CC(=O)[CH-]C(C)=O.CC[O-].CC[O-].[Ti+4] on SNB-19 CNS, measured TGI was > 100 µM

---

TGI listing for selected compounds.
# System: DLD-1 colon
# Measurement Description: NCI tumour cell line growth inhibition, 48 h
Kindly provide the numeric value in µM only, without the unit symbol.

// below: answered compounds
Compound	TGI / µM
CCc1cccc(C)c1NC(=O)CC1C(=O)Nc2ccccc2S1(=O)=O (stereo unspecified)	40.4
CCC[CH2][Sn]1([CH2]CCC)[O]CC(C)[O]1 (stereo unspecified)	3.32
C/C=C(/C)C(=O)O[C@H]1[C@H](O)CC(c2ccc3c(c2O)C(O)=C2C(=O)C4(OC)C(O)=C(C(N)=O)C(=O)[C@H](CC(=O)c5ccccc5O)C4CC2[C@@]3(C)OC)O[C@@H]1C (stereo partly specified)	3.85
CC1(C)CC(N(C(=O)/C=C/c2ccc([N+](=O)[O-])o2)C2CCCCC2)CC(C)(C)N1	3.38
CN(C)CC/C(=N\Nc1ccc(Cl)cc1Cl)c1ccccc1	23.8

For CCN(CC)C(=S)[S][Bi]([S]C(=S)N(CC)CC)[S]C(=S)N(CC)CC on DLD-1 colon, measured TGI was 0.208

---

# Test system: COLO 205 colon
# Measurement Description: NCI tumour cell line growth inhibition, 48 h; in the data active = GI50 below about 0.43 µM; inactive = the rest
*1 amine or outer side, *2 acyl side, *3 side chain or, on linkers, in order; H or OH if unused. Where a SMILES comes first, the peptide text is derived from it. Bridges are numbered along the chain shown (N, C = ends). Roman numbers before positions name the chains, in order. [ ]: non-standard residue; d: D form. Actinocin(9to1) = Cc1c2oc3c(C)ccc(C(=O)[*:1])c3nc-2c(C(=O)[*:2])c(N)c1=O; NMeF = CN[CH](Cc1ccccc1)C(=O)O; Sar = CNCC(=O)O
Return exactly one item of active, inactive

Look over these answered cases.
Compound	Cat
Cn1cc(C2=C(N3CCOCC3)C(=O)NC2=O)c2ccccc21	inactive
Cc1c2oc3c(C)ccc(C(=O)NC4C(=O)NC(C(C)C)C(=O)N5CCCC5C(=O)N(C)CC(=O)N(C)C(Cc5ccccc5)C(=O)OC4C)c3nc-2c(C(=O)NC2C(=O)NC(C(C)C)C(=O)N3CCCC3C(=O)N(C)CC(=O)N(C)C(Cc3ccccc3)C(=O)OC2C)c(N)c1=O (stereo not drawn) (I: TVP[Sar][NMeF] / II: TVP[Sar][NMeF]; ester I:1-I:C, II:1-II:C; linker I:N-II:N via Actinocin(9to1); configuration not given here)	active

(Q) Look up the recorded call for C[C@@H]1COCCN1c1cc(C2(O)C[C@H]3CC[C@@H](C2)O3)c2cnn(-c3ccn[nH]3)c2n1 (stereo partly drawn) in this test.
(A) active
